subject_of_test: Nav1.7 (or SCN9A) channel (Homo sapiens, UniProt Q15858)
Construct: expressed in transfected cells
Sequence (Q15858 whole entry): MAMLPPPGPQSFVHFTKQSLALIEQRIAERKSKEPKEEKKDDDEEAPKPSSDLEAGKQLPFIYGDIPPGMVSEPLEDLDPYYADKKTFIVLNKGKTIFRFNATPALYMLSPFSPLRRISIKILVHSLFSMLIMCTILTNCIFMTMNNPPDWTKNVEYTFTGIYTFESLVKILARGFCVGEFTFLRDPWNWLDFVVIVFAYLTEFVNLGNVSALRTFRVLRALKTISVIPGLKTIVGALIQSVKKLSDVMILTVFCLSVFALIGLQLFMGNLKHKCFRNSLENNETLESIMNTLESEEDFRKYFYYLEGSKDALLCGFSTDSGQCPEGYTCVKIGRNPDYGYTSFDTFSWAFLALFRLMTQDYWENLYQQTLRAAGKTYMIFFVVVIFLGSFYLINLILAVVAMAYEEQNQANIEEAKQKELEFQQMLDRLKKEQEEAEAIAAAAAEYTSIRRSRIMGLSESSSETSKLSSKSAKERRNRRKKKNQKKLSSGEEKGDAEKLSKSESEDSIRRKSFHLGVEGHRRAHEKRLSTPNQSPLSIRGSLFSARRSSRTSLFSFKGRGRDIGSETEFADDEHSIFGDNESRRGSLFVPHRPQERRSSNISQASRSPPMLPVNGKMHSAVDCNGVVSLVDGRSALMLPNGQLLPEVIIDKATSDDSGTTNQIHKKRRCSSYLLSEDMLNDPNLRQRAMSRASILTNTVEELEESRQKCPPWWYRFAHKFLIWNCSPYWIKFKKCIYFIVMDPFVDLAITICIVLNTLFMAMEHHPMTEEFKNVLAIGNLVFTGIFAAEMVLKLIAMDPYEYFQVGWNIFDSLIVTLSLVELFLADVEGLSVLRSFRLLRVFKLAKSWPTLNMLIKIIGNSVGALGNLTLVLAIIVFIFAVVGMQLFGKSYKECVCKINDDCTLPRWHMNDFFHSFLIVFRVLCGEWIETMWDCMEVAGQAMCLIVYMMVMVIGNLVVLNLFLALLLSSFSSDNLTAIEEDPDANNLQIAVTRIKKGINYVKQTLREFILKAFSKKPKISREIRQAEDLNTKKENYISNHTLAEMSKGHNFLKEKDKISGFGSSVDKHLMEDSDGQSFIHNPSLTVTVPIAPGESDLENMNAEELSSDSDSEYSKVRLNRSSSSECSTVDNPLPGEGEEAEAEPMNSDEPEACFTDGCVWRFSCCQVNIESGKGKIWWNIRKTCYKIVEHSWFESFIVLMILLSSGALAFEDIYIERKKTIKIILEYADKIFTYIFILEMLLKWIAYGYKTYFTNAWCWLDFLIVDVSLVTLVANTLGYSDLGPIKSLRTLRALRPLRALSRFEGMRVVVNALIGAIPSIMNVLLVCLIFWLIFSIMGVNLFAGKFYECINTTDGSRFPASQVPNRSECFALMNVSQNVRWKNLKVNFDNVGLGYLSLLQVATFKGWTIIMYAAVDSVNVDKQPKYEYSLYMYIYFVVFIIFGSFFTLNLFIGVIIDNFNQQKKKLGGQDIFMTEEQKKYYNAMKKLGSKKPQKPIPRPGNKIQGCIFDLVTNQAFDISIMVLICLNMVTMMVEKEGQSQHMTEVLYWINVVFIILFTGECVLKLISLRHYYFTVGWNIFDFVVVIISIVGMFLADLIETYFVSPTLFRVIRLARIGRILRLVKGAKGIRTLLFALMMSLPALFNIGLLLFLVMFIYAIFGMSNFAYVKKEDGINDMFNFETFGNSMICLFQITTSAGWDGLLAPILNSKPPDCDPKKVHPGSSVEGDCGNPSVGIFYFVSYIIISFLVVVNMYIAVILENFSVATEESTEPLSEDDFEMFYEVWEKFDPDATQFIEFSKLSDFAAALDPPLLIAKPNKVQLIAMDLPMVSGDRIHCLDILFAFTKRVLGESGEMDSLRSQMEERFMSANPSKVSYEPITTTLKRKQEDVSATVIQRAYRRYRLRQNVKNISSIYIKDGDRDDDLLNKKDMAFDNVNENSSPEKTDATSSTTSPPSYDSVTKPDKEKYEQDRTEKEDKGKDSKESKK
procedure_summary: Nav1.7 (hSCN9A) block in HEK cells, PatchXpress 7000 automated electrophysiology, estimated IC50 (EIC50)
Assay type: cell-based
study_conditions: PatchXpress assay; HEK cells stably transfected with hSCN9A, voltage-clamped at V1/2 of inactivation
The following molecules are listed with their measured IC50 values.

Here are 3 molecules together with their reported answers.
Looking up `CC(C)(C)c1ncc(Oc2cc(F)c(C(=O)NS(C)(=O)=O)cc2F)cc1Cl` , I found its IC50 recorded as 270 nM

Looking up `COc1cc(C(=O)NS(C)(=O)=O)ccc1Oc1cnc(OC(C)C)c(Cl)c1` , I found its IC50 recorded as 250 nM

Looking up `COc1c(F)c(Oc2cnc(OC(C)C)c(Cl)c2)cc(F)c1C(=O)NS(C)(=O)=O` , I found its IC50 recorded as > 1000 nM

Proceed to the following item.
Looking up `COc1ncc(Oc2cc(F)c(C(=O)NS(=O)(=O)C3CC3)cc2F)cc1Cl` , I found its IC50 recorded as 4600 nM

====

subject_of_test: Nav1.7 (or SCN9A) channel (Homo sapiens, UniProt Q15858)
Construct: expressed in transfected cells
procedure_summary: Nav1.7 (hSCN9A) block in HEK cells, PatchXpress 7000 automated electrophysiology, estimated IC50 (EIC50)
Type: cell-based
study_conditions: PatchXpress assay; HEK cells stably transfected with hSCN9A, voltage-clamped at V1/2 of inactivation
result_type: IC50 (µM)
Supply the numeric figure in µM, leaving out any unit text.

Here are 5 compounds together with their reported answers.
Looking up CS(=O)(=O)NC(=O)c1cc(F)c(Oc2ccc(Cl)cn2)cc1F [Example 184] , I found its IC50 recorded as 4.4

Looking up CC(C)c1nccnc1Oc1cc(F)c(C(=O)NS(C)(=O)=O)cc1F [Example 193] , I found its IC50 recorded as 2.1

Looking up CC(C)(F)c1ncc(Oc2cc(F)c(C(=O)NS(C)(=O)=O)cc2Cl)cc1Cl [Example 7] , I found its IC50 recorded as 0.29

Looking up CS(=O)(=O)NC(=O)c1cc(F)c(Oc2cnc(NC3CC3)c(Cl)c2)cc1F [Example 140] , I found its IC50 recorded as 1.6

Looking up CS(=O)(=O)NC(=O)c1cc(F)c(Oc2cnc(N3CCC(F)(F)C3)c(Cl)c2)cc1F [Example 123] , I found its IC50 recorded as 0.12

Continuing:
Looking up CS(=O)(=O)NC(=O)c1cc(Cl)c(Oc2cnc(N3CCC(F)(F)C3)c(Cl)c2)cc1F [Example 95] , I found its IC50 recorded as 0.037

Looking up CC(C)(C)Oc1ncc(Oc2cc(F)c(C(=O)NS(C)(=O)=O)cc2Cl)cc1Cl [Example 101] , I found its IC50 recorded as 0.034

====

subject_of_test: Nav1.7 (or SCN9A) channel (Homo sapiens)
Construct: expressed in transfected cells
procedure_summary: Nav1.7 (hSCN9A) block in HEK cells, Ionworks Quattro automated electrophysiology
Assay type: cell-based
study_conditions: Ionworks Quattro assay (IW); HEK cells stably transfected with hSCN9A; read-out: Nav1.7 EIC50 (IW)
The following compounds are listed with their measured IC50 values.

Here are 2 compounds together with their reported answers.
Looking up `Cc1cc(N(C)C)nc(Oc2cc(F)c(C(=O)NS(C)(=O)=O)cc2F)n1` , I found its IC50 recorded as > 323 µM

Looking up `Cc1ccc(Oc2ccc(C(=O)NS(C)(=O)=O)cc2F)cn1` , I found its IC50 recorded as 300 µM

Proceed to the following item.
Looking up `CS(=O)(=O)NC(=O)c1cc(F)c(Oc2nncc3ccccc23)cc1F` , I found its IC50 recorded as > 323 µM

====

subject_of_test: Nav1.7 (or SCN9A) channel (Homo sapiens, UniProt Q15858)
Construct: expressed in transfected cells
procedure_summary: Nav1.7 (hSCN9A) block in HEK cells, Ionworks Quattro automated electrophysiology
Assay type: cell-based
study_conditions: Ionworks Quattro assay (IW); HEK cells stably transfected with hSCN9A; read-out: Nav1.7 EIC50 (IW)
result_type: IC50 (µM)
Supply the numeric figure in µM, leaving out any unit text.

Observed IC50, Nav1.7 (or SCN9A) channel (Homo sapiens, UniProt Q15858), `CS(=O)(=O)NC(=O)c1ccc(Oc2cnc3ccccc3c2)c(C#N)c1` : 50.2

Proceed to the following item.
Observed IC50, Nav1.7 (or SCN9A) channel (Homo sapiens, UniProt Q15858), `CS(=O)(=O)NC(=O)c1ccc(Oc2ccc3ccccc3n2)c(C#N)c1` : 222

====

subject_of_test: Nav1.7 (or SCN9A) channel (Homo sapiens)
Construct: expressed in transfected cells
procedure_summary: Nav1.7 (hSCN9A) block in HEK cells, PatchXpress 7000 automated electrophysiology, estimated IC50 (EIC50)
Format: cell-based
study_conditions: PatchXpress assay; HEK cells stably transfected with hSCN9A, voltage-clamped at V1/2 of inactivation
Method: The ability of the compounds of formula (I) to block the Nav1.7 (or SCN9A) channel were measured using the assay described below. […] HEK cells stably transfected with hSCN9A were viewed under Hoffman contrast optics and placed in front of an array of flow pipes emitting either control or compound-containing extracellular solutions. […] The voltage-dependence of inactivation was determined by applying a series of depolarizing prepulses (8 sec long in 10 mV increments) from a negative holding potential. […]
result_type: pIC50
API: returns pIC50 as number; meaning -log10 of concentration in mol/L.

Here are 7 compounds together with their reported answers.
Looking up `CS(=O)(=O)NC(=O)c1cc(F)c(Oc2cnc(C(F)(F)F)c(Cl)c2)cc1F` , I found its pIC50 recorded as 5.74

Looking up `CCN(C)c1ncc(Oc2cc(F)c(C(=O)NS(C)(=O)=O)cc2F)cc1Cl` , I found its pIC50 recorded as 6.05

Looking up `CS(=O)(=O)NC(=O)c1cc(Cl)c(Oc2cnc(C3CC(F)(F)C3)c(Cl)c2)cc1F` , I found its pIC50 recorded as 7.01

Looking up `CC(C)Oc1ncc(Oc2cc(F)c(C(=O)NS(C)(=O)=O)cc2Cl)cn1` , I found its pIC50 recorded as 5.26

Looking up `CS(=O)(=O)NC(=O)c1ccc(Oc2cnc(N3CCCCC3)nc2)c(Cl)c1` , I found its pIC50 recorded as 6.52

Looking up CC(Oc1ncc(Oc2cc(F)c(C(=O)NS(C)(=O)=O)cc2F)cc1Cl)C(F)(F)F (centres unmarked) , I found its pIC50 recorded as 6.92

Looking up `CS(=O)(=O)NC(=O)c1cc(F)c(Oc2cnc(NCC3CCC3)c(Cl)c2)cc1F` , I found its pIC50 recorded as 7.27

Proceed to the following item.
Looking up `CC(C)C(F)(F)c1ncc(Oc2cc(F)c(C(=O)NS(C)(=O)=O)cc2Cl)cc1Cl` , I found its pIC50 recorded as 6.85

====

subject_of_test: Nav1.7 (or SCN9A) channel (Homo sapiens, UniProt Q15858)
Construct: expressed in transfected cells
procedure_summary: Nav1.7 (hSCN9A) block in HEK cells, PatchXpress 7000 automated electrophysiology, estimated IC50 (EIC50)
Assay type: cell-based
study_conditions: PatchXpress assay; HEK cells stably transfected with hSCN9A, voltage-clamped at V1/2 of inactivation
Description: The ability of the compounds of formula (I) to block the Nav1.7 (or SCN9A) channel were measured using the assay described below. […] HEK cells stably transfected with hSCN9A were viewed under Hoffman contrast optics and placed in front of an array of flow pipes emitting either control or compound-containing extracellular solutions. […] The voltage-dependence of inactivation was determined by applying a series of depolarizing prepulses (8 sec long in 10 mV increments) from a negative holding potential. […]
result_type: pIC50
API: returns pIC50 as number; meaning -log10 of concentration in mol/L.

Here are 3 compounds together with their reported answers.
Looking up `CS(=O)(=O)NC(=O)c1cc(Cl)c(Oc2cnc(OCC(F)(F)C(F)F)c(Cl)c2)cc1F` , I found its pIC50 recorded as 7.72

Looking up `COC1(C)CN(c2ncc(Oc3cc(F)c(C(=O)NS(C)(=O)=O)cc3F)cc2Cl)C1` , I found its pIC50 recorded as 6.02

Looking up `CS(=O)(=O)NC(=O)c1cc(F)c(Oc2cnc(OCC(F)F)c(Cl)c2)cc1F` , I found its pIC50 recorded as 6.19

Continuing:
Looking up `CC(C)Oc1ncc(Oc2cc(F)c(C(=O)NS(C)(=O)=O)cc2F)cc1Cl` , I found its pIC50 recorded as 7.39

Looking up `CS(=O)(=O)NC(=O)c1cc(Cl)c(Oc2cnc(-c3ccccc3)c(Cl)c2)cc1F` , I found its pIC50 recorded as 6.62
